Every entry's value here was drawn from paper PMC6751662.

assayedSystem: NPFF2R (Homo sapiens, UniProt Q9Y5X5)
Construct: expressed in transfected cells; host or cells: HEK293, transient
Sequence (Q9Y5X5 103-522): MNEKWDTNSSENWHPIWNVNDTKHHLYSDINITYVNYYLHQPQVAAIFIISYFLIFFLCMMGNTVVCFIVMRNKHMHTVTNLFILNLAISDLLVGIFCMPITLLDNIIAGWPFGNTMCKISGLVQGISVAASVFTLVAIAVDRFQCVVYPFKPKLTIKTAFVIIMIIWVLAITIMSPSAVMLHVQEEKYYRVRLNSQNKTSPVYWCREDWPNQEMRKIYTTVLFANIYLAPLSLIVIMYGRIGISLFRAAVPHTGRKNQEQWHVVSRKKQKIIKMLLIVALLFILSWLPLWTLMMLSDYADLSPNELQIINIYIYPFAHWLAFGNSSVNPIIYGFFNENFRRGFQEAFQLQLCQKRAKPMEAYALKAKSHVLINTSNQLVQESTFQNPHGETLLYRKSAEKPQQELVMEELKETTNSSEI
assay: IP accumulation assay, chimeric GαΔ6qi4myr, NPFF2R
Format: cell-based
conditionParameters: 10 µM peptide; chimeric GαΔ6qi4myr co-transfected; transiently transfected HEK293 cells; mean of at least three independent experiments
measureName: IP accumulation, x-fold of basal (mean), NPFF2R

Solved entries:
[
  {
    "substance": "AGSDPNFLRF-NH2 [FLP-1-2, C. elegans FMRFamide-like peptide, C-terminally amidated, synthesized by SPPS]",
    "result": "2.86 x-fold of basal"
  },
  {
    "substance": "APKPKFIRF-NH2 [FLP-5-1, C. elegans FMRFamide-like peptide, C-terminally amidated, synthesized by SPPS]",
    "result": "2.44 x-fold of basal"
  }
]

As a next step, examine the substance that follows.
Enquiry: Note down IP accumulation, x-fold of basal (mean), NPFF2R recorded for ASPSFIRF-NH2 [FLP-4-2, C. elegans FMRFamide-like peptide, C-terminally amidated, synthesized by SPPS]
Return: 2.36 x-fold of basal
